B1: library; a variant is named by its letters at N, in order (parent)
chain: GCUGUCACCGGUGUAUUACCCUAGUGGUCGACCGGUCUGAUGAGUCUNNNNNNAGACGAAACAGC

variants of: B1; test: normalized RNA/DNA level with ligand (relative to sTRSVctl = 100) (log10 (% of sTRSVctl)); ligand: hypoxanthine (xanthine aptamer); higher = less ribozyme self-cleavage, higher mRNA level; conditions: ligand concentration (+) RNA-Seq: 5 mM, HEK293T, reporter: mCherry (pCS4076), ligand present: yes
Metric Name: normalized RNA/DNA level with ligand (log10)

variant_annotation=CGAUUA reported=1.92
variant_annotation=CUGUAU reported=1.9
variant_annotation=AAUCUG reported=1.85
variant_annotation=AAACCU reported=1.94
variant_annotation=AGUUCU reported=1.9
variant_annotation=UCGAUG reported=1.92
variant_annotation=GAGCCG reported=1.85
variant_annotation=GGGAUG reported=1.79
variant_annotation=UGUGCA reported=1.92
variant_annotation=UGCUCG reported=1.94
variant_annotation=GGUACG reported=1.88
variant_annotation=CGGCGC reported=2
variant_annotation=AUGUAG reported=1.77
variant_annotation=GUUCCA reported=1.96
variant_annotation=UACGGU reported=1.85
variant_annotation=GAGGGG reported=1.81
variant_annotation=CCCGGG reported=1.94
variant_annotation=UUACGG reported=1.94
variant_annotation=UAGAGA reported=1.9
variant_annotation=GCUACG reported=1.95
variant_annotation=CGGUGG reported=1.86
variant_annotation=AUUCAU reported=1.93
variant_annotation=GAUAGU reported=1.88
variant_annotation=AGAGUU reported=1.9
variant_annotation=CCAACU reported=2.02
variant_annotation=UCCAUG reported=1.88
variant_annotation=AAUAGC reported=1.92
variant_annotation=UACUUG reported=1.93
variant_annotation=GUUGAG reported=1.81
variant_annotation=CCAGUC reported=1.99
variant_annotation=UGGGGC reported=1.99
variant_annotation=CUUAGC reported=1.94
variant_annotation=GAUGUG reported=1.82
variant_annotation=CGUCUA reported=1.93
variant_annotation=GUCUUC reported=1.99
variant_annotation=CUGUCU reported=2.03
variant_annotation=AUUUGC reported=1.91
variant_annotation=GCCAAA reported=1.95
variant_annotation=GCUCUG reported=1.89
variant_annotation=AUCGUC reported=2.03
variant_annotation=GGGAAU reported=1.93
variant_annotation=UUGAUG reported=1.94
variant_annotation=CGGGGU reported=1.99
variant_annotation=CGUAUA reported=1.91
variant_annotation=AUUAGA reported=1.89
variant_annotation=GGGCCU reported=2.06
